Assay: General cytotoxicity on HepG2 cells
Type: cell-based
Conditions: human; general cytotoxicity, HepG2 cells, 72 hours, average of several tests
Counter-ions that a name gives are not always drawn.
OUTCOME_MEASURE: CC50 at 72 h (µM)
Give bare numbers, in µM.

Below: 3 molecules and their reported CC50 at 72 h.
>  <MOLECULE>
C=CC(=O)Nc1cc(Nc2nccc(C(=O)c3ccc(N4CCC(N)CC4)cc3)n2)c(OC)cc1N(C)CCN(C)C

>  <VALUE_UNIT>
µM

>  <CC50 at 72 h>
75.1

$$$$
>  <MOLECULE>
C=CC(=O)Nc1cc(Nc2nccc(C(=O)c3ccc(N4CCC(N(C)C)CC4)cc3)n2)c(OC)cc1N(C)CCN(C)C [EGFR_3365_121a]

>  <VALUE_UNIT>
µM

>  <CC50 at 72 h>
11.8

$$$$
>  <MOLECULE>
C=CC(=O)Nc1cc(Nc2nccc(C(=O)c3ccccc3Br)n2)c(OC)cc1N(C)CCN(C)C

>  <VALUE_UNIT>
µM

>  <CC50 at 72 h>
22.6

$$$$

Please give CC50 at 72 h for each item listed below.
1. C=CC(=O)Nc1cc(Nc2nccc(C(=O)c3ccccc3OC)n2)c(OC)cc1N(C)CCN(C)C
2. C=CC(=O)Nc1cc(Nc2nccc(C(=O)c3ccc(F)cc3)n2)c(OC)cc1N(C)CCN(C)C
3. C=CC(=O)Nc1cc(Nc2nccc(C(=O)c3ccc(OCc4ccccc4)cc3)n2)c(OC)cc1N(C)CCN(C)C
4. C=CC(=O)Nc1cc(Nc2nccc(C(=O)c3ccc(OC(C)C)cc3)n2)c(OC)cc1N(C)CCN(C)C

57.6
30.4
5.79
9.49

Please give CC50 at 72 h for each item listed below.
1. C=CC(=O)Nc1cc(Nc2nccc(C(=O)c3ccc(OC)cc3OC)n2)c(OC)cc1N(C)CCN(C)C
2. C=CC(=O)Nc1cc(Nc2cc(C(=O)c3ccc(N4CC(OC)C4)cc3)ccn2)c(OC)cc1N(C)CCN(C)C (racemic)
3. C=CC(=O)Nc1cc(Nc2nccc(C(=O)c3ccc(N4CC[C@H](OC)C4)cc3)n2)c(OC)cc1N(C)CCN(C)C
4. C=CC(=O)Nc1cc(Nc2nccc(C(=O)c3ccc(OCCC)cc3)n2)c(OC)cc1N(C)CCN(C)C
5. C=CC(=O)Nc1cc(Nc2nccc(C(=O)c3ccc(N4CCN(C)CC4)cc3)n2)c(OC)cc1N(C)CCN(C)C [EGFR_3365_62, formate]

1. 51.9
2. 20.6
3. 23.8
4. 10.9
5. 31.1

Please give CC50 at 72 h for each item listed below.
1. C=CC(=O)Nc1cc(Nc2cc(C(=O)c3ccccc3OC)ccn2)c(OC)cc1N(C)CCN(C)C
2. C=CC(=O)Nc1cc(Nc2nccc(C(=O)c3ccc(OCCC)cc3OC)n2)c(OC)cc1N(C)CCN(C)C

26.9
16

====

System: H1975 (lung adenocarcinoma, DM, L828R/T790M)
Assay: Antiproliferative activity on H1975 cells (Alamar Blue)
Type: cell-based
Conditions: Homo sapiens, NCI-H1975; H1975 cells, average values obtained in several tests, Table 16; read-out: H1975 (DM) IC50
OUTCOME_MEASURE: IC50 (nM)
One number for each entry, in nM.

Below: 3 compounds and their reported IC50.
>  <SMILES_REPRESENTATION>
C=CC(=O)Nc1cc(Nc2nccc(C(=O)c3ccc(OC)cc3OC)n2)c(OC)cc1N(C)CCN(C)C

>  <IC50 / nM>
7.9

$$$$
>  <SMILES_REPRESENTATION>
C=CC(=O)Nc1cc(Nc2nccc(C(=O)c3ccc(N4CCC(C#N)CC4)cc3)n2)c(OC)cc1N(C)CCN(C)C

>  <IC50 / nM>
22.9

$$$$
>  <SMILES_REPRESENTATION>
C=CC(=O)Nc1cc(Nc2cc(C(=O)c3ccc(OCC)cc3)ccn2)c(OC)cc1N(C)CCN(C)C

>  <IC50 / nM>
66.1

$$$$

Okay, now this compound:
Provide one value: measured IC50 of `C=CC(=O)Nc1cc(Nc2nccc(C(=O)c3ccc(OC(C)C)cc3OC)n2)c(OC)cc1N(C)CCN(C)C`
13.2
